Where do these numbers come from? They come from paper PMC9144902.

Tested on: CT DNA
measurement description: Study of the DNA-interaction by cyclic voltammetry
Type: binding, calf
test conditions: M(II)/M(I), 1:2 DMSO/buffer, absence of CT DNA
# Lookup of reported Epa(f), anodic potential keyed by entry

>  <compound>
CN1CCN(c2c(F)cc3c(=O)c(C(=O)[O-])cn(CCF)c3c2F)CC1.CN1CCN(c2c(F)cc3c(=O)c(C(=O)[O-])cn(CCF)c3c2F)CC1.[Mn+2].c1ccc(-c2ccccn2)nc1 [complex 9, [Mn(flrx)2(bipy)]]

>  <Epa(f), anodic potential, mV>
−475

$$$$
>  <compound>
CN1CCN(c2c(F)cc3c(=O)c(C(=O)[O-])cn(CCF)c3c2F)CC1.[Cl-].[Cu+2].c1ccc(-c2ccccn2)nc1 [complex 6, [Cu(flrx)(bipy)Cl]]

>  <Epa(f), anodic potential, mV>
−450

$$$$
>  <compound>
CN1CCN(c2c(F)cc3c(=O)c(C(=O)[O-])cn(CCF)c3c2F)CC1.CN1CCN(c2c(F)cc3c(=O)c(C(=O)[O-])cn(CCF)c3c2F)CC1.CO.CO.[Ni+2] [complex 5, [Ni(flrx)2(MeOH)2]]

>  <Epa(f), anodic potential, mV>
−495

$$$$
>  <compound>
CN1CCN(c2c(F)cc3c(=O)c(C(=O)[O-])cn(CCF)c3c2F)CC1.CN1CCN(c2c(F)cc3c(=O)c(C(=O)[O-])cn(CCF)c3c2F)CC1.[Ni+2].c1cnc2c(c1)ccc1cccnc12 [complex 19, [Ni(flrx)2(phen)]]

>  <Epa(f), anodic potential, mV>
−489

$$$$
>  <compound>
CN1CCN(c2c(F)cc3c(=O)c(C(=O)[O-])cn(CCF)c3c2F)CC1.CN1CCN(c2c(F)cc3c(=O)c(C(=O)[O-])cn(CCF)c3c2F)CC1.[Mn+2].c1cnc2c(c1)ccc1cccnc12 [complex 11, [Mn(flrx)2(phen)]]

>  <Epa(f), anodic potential, mV>
−501

$$$$
>  <compound>
CN1CCN(c2c(F)cc3c(=O)c(C(=O)[O-])cn(CCF)c3c2F)CC1.CN1CCN(c2c(F)cc3c(=O)c(C(=O)[O-])cn(CCF)c3c2F)CC1.[Cu+2] [complex 1, [Cu(flrx)2]]

>  <Epa(f), anodic potential, mV>
−504

$$$$

----------
System: CT DNA
measurement description: Study of the DNA-interaction by cyclic voltammetry
Format: binding, calf
test conditions: eq. S6
quantity name: Kr/Kox, ratio of equilibrium DNA-binding constants (reduced/oxidized form)

>  <compound>
CN1CCN(c2c(F)cc3c(=O)c(C(=O)[O-])cn(CCF)c3c2F)CC1.CN1CCN(c2c(F)cc3c(=O)c(C(=O)[O-])cn(CCF)c3c2F)CC1.[Mn+2].c1ccc(-c2ccccn2)nc1 [complex 9, [Mn(flrx)2(bipy)]]

>  <observed result>
0.97

$$$$
>  <compound>
CN1CCN(c2c(F)cc3c(=O)c(C(=O)[O-])cn(CCF)c3c2F)CC1.[Cl-].[Cu+2].c1cnc2c(c1)ccc1cccnc12 [complex 8, [Cu(flrx)(phen)Cl]]

>  <observed result>
2.00

$$$$
>  <compound>
CN1CCN(c2c(F)cc3c(=O)c(C(=O)[O-])cn(CCF)c3c2F)CC1.CN1CCN(c2c(F)cc3c(=O)c(C(=O)[O-])cn(CCF)c3c2F)CC1.[Ni+2].c1cnc2c(c1)ccc1cccnc12 [complex 19, [Ni(flrx)2(phen)]]

>  <observed result>
1.15

$$$$

----------
system tested: human serum albumin (HSA) (Homo sapiens)
Construct: purchased
Sequence (P02768 25-609): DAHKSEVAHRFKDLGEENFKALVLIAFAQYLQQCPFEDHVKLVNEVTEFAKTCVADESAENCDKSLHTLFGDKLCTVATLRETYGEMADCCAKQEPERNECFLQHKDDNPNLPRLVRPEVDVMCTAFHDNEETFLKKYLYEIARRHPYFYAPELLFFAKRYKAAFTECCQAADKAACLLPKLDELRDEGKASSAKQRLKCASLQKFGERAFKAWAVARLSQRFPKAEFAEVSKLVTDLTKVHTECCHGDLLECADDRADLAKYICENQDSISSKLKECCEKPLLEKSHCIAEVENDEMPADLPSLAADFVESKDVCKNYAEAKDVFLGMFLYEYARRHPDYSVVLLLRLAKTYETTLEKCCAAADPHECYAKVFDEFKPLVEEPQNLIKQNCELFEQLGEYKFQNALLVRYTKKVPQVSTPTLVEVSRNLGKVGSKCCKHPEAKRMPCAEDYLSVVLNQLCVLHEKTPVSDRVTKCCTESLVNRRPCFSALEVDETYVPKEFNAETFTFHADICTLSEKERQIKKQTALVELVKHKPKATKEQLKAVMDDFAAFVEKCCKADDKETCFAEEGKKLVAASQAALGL
measurement description: Albumin binding by tryptophan fluorescence emission quenching
test conditions: λem,max = 351 nm, final value of titration (Figure S10)
Method: Serum albumins (Sas) are the most abundant serum proteins and play a role in the circulatory system, primarily in the transport of drugs and other bioactive small molecules through the bloodstream. The SA-quenching constants (kq) for the compounds (Table 5) were calculated with the Stern–Volmer quenching equation (Equations (S2) and (S3)). Albumin-binding constants (K) were calculated using the Scatchard equation (Equation (S4)). […] S2. Interaction with serum albumins […]
quantity name: HSA fluorescence, % of the initial fluorescence intensity (I/Io) (%)

>  <molecule>
CN1CCN(c2c(F)cc3c(=O)c(C(=O)[O-])cn(CCF)c3c2F)CC1.[Cl-].[Cu+2].c1ccc(-c2ccccn2)nc1 [complex 6, [Cu(flrx)(bipy)Cl]]

>  <system tested>
human serum albumin (HSA) (Homo sapiens)

>  <observed result>
48.5

$$$$
>  <molecule>
CN1CCN(c2c(F)cc3c(=O)c(C(=O)[O-])cn(CCF)c3c2F)CC1.CN1CCN(c2c(F)cc3c(=O)c(C(=O)[O-])cn(CCF)c3c2F)CC1.[Cu+2] [complex 1, [Cu(flrx)2]]

>  <system tested>
human serum albumin (HSA) (Homo sapiens)

>  <observed result>
33.3

$$$$
>  <molecule>
CN1CCN(c2c(F)cc3c(=O)c(C(=O)[O-])cn(CCF)c3c2F)CC1.CN1CCN(c2c(F)cc3c(=O)c(C(=O)[O-])cn(CCF)c3c2F)CC1.[Mn+2].c1ccc(-c2ccccn2)nc1 [complex 9, [Mn(flrx)2(bipy)]]

>  <system tested>
human serum albumin (HSA) (Homo sapiens)

>  <observed result>
39.8

$$$$
>  <molecule>
CN1CCN(c2c(F)cc3c(=O)c(C(=O)[O-])cn(CCF)c3c2F)CC1.[Cl-].[Cu+2].c1ccc(Nc2ccccn2)nc1 [complex 7, [Cu(flrx)(bipyam)Cl]]

>  <system tested>
human serum albumin (HSA) (Homo sapiens)

>  <observed result>
49.3

$$$$
>  <molecule>
CN1CCN(c2c(F)cc3c(=O)c(C(=O)[O-])cn(CCF)c3c2F)CC1.CN1CCN(c2c(F)cc3c(=O)c(C(=O)[O-])cn(CCF)c3c2F)CC1.[Mn+2].c1ccc(Nc2ccccn2)nc1 [complex 10, [Mn(flrx)2(bipyam)]]

>  <system tested>
human serum albumin (HSA) (Homo sapiens)

>  <observed result>
47.4

$$$$

----------
Test system: EB–DNA adduct (CT DNA)
measurement description: Competitive study with EB (EB–DNA fluorescence quenching)
Format: binding, calf
test conditions: λemission = 592 nm, final value (up to), Figure S14
Hi! Just check whether EB–DNA relative fluorescence emission intensity, % of the initial (I/Io) is below 30%. Below gives 1, equal or above gives -1.

>  <compound>
CN1CCN(c2c(F)cc3c(=O)c(C(=O)[O-])cn(CCF)c3c2F)CC1.CN1CCN(c2c(F)cc3c(=O)c(C(=O)[O-])cn(CCF)c3c2F)CC1.CO.CO.[Zn+2] [complex 3, [Zn(flrx)2(MeOH)2]]

>  <assigned category>
1

$$$$
>  <compound>
CN1CCN(c2c(F)cc3c(=O)c(C(=O)[O-])cn(CCF)c3c2F)CC1.CN1CCN(c2c(F)cc3c(=O)c(C(=O)[O-])cn(CCF)c3c2F)CC1.CO.CO.[Ni+2] [complex 5, [Ni(flrx)2(MeOH)2]]

>  <assigned category>
-1

$$$$
>  <compound>
CN1CCN(c2c(F)cc3c(=O)c(C(=O)[O-])cn(CCF)c3c2F)CC1.CN1CCN(c2c(F)cc3c(=O)c(C(=O)[O-])cn(CCF)c3c2F)CC1.[Ni+2].c1cnc2c(c1)ccc1cccnc12 [complex 19, [Ni(flrx)2(phen)]]

>  <assigned category>
-1

$$$$
>  <compound>
CN1CCN(c2c(F)cc3c(=O)c(C(=O)[O-])cn(CCF)c3c2F)CC1.CN1CCN(c2c(F)cc3c(=O)c(C(=O)[O-])cn(CCF)c3c2F)CC1.[Zn+2].c1ccc(-c2ccccn2)nc1 [complex 12, [Zn(flrx)2(bipy)]]

>  <assigned category>
1

$$$$
>  <compound>
CN1CCN(c2c(F)cc3c(=O)c(C(=O)[O-])cn(CCF)c3c2F)CC1.[Cl-].[Cu+2].c1ccc(-c2ccccn2)nc1 [complex 6, [Cu(flrx)(bipy)Cl]]

>  <assigned category>
-1

$$$$
>  <compound>
CN1CCN(c2c(F)cc3c(=O)c(C(=O)[O-])cn(CCF)c3c2F)CC1.CN1CCN(c2c(F)cc3c(=O)c(C(=O)[O-])cn(CCF)c3c2F)CC1.[Zn+2].c1ccc(Nc2ccccn2)nc1 [complex 13, [Zn(flrx)2(bipyam)]]

>  <assigned category>
1

$$$$
>  <compound>
CN1CCN(c2c(F)cc3c(=O)c(C(=O)[O-])cn(CCF)c3c2F)CC1.CN1CCN(c2c(F)cc3c(=O)c(C(=O)[O-])cn(CCF)c3c2F)CC1.[Cu+2] [complex 1, [Cu(flrx)2]]

>  <assigned category>
-1

$$$$

----------
system tested: bovine serum albumin (BSA) (Bos taurus, UniProt P02769)
Construct: purchased
Sequence (P02769 25-607): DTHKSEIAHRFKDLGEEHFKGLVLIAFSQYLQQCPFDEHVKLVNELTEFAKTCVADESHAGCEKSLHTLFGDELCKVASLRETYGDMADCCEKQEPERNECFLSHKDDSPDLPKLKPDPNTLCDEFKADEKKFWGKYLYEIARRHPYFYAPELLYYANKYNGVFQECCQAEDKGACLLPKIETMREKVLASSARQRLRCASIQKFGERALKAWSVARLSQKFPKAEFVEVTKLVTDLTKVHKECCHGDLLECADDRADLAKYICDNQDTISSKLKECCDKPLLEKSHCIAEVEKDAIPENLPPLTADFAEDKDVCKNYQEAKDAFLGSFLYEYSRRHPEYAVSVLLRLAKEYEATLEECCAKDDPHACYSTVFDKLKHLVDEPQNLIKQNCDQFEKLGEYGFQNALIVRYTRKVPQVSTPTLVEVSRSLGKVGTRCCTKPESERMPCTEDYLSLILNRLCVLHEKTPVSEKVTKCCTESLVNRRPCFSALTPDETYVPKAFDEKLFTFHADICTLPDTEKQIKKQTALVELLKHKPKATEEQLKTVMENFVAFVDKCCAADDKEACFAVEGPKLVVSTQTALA
measurement description: Albumin binding by tryptophan fluorescence emission quenching
test conditions: BSA 3 μM, buffer pH 7.0, λexc 295 nm, Stern–Volmer, τ0 = 10^–8 s
# Lookup of reported kq(BSA), BSA-quenching constant keyed by entry

>  <molecule>
CN1CCN(c2c(F)cc3c(=O)c(C(=O)[O-])cn(CCF)c3c2F)CC1.CN1CCN(c2c(F)cc3c(=O)c(C(=O)[O-])cn(CCF)c3c2F)CC1.[Zn+2].c1ccc(-c2ccccn2)nc1 [complex 12, [Zn(flrx)2(bipy)]]

>  <system tested>
bovine serum albumin (BSA) (Bos taurus, UniProt P02769)

>  <kq(BSA), BSA-quenching constant>
1.74(±0.08) × 10^13 M^−1s^−1

$$$$
>  <molecule>
CN1CCN(c2c(F)cc3c(=O)c(C(=O)[O-])cn(CCF)c3c2F)CC1.CN1CCN(c2c(F)cc3c(=O)c(C(=O)[O-])cn(CCF)c3c2F)CC1.[Co+2].c1cnc2c(c1)ccc1cccnc12 [complex 17, [Co(flrx)2(phen)]]

>  <system tested>
bovine serum albumin (BSA) (Bos taurus, UniProt P02769)

>  <kq(BSA), BSA-quenching constant>
1.50(±0.03) × 10^13 M^−1s^−1

$$$$
>  <molecule>
CN1CCN(c2c(F)cc3c(=O)c(C(=O)[O-])cn(CCF)c3c2F)CC1.CN1CCN(c2c(F)cc3c(=O)c(C(=O)[O-])cn(CCF)c3c2F)CC1.[Co+2].c1ccc(Nc2ccccn2)nc1 [complex 16, [Co(flrx)2(bipyam)]]

>  <system tested>
bovine serum albumin (BSA) (Bos taurus, UniProt P02769)

>  <kq(BSA), BSA-quenching constant>
1.98(±0.05) × 10^13 M^−1s^−1

$$$$
>  <molecule>
CN1CCN(c2c(F)cc3c(=O)c(C(=O)[O-])cn(CCF)c3c2F)CC1.CN1CCN(c2c(F)cc3c(=O)c(C(=O)[O-])cn(CCF)c3c2F)CC1.CO.CO.[Co+2] [complex 4, [Co(flrx)2(MeOH)2]]

>  <system tested>
bovine serum albumin (BSA) (Bos taurus, UniProt P02769)

>  <kq(BSA), BSA-quenching constant>
1.34(±0.03) × 10^13 M^−1s^−1

$$$$
>  <molecule>
CN1CCN(c2c(F)cc3c(=O)c(C(=O)O)cn(CCF)c3c2F)CC1

>  <system tested>
bovine serum albumin (BSA) (Bos taurus, UniProt P02769)

>  <kq(BSA), BSA-quenching constant>
6.19(±0.23) × 10^12 M^−1s^−1

$$$$
